# Assay summary: chemical genetic growth profiling, strain panel (AID 1159580);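 note: tested at 20 µM; growth read once vehicle control cultures reached saturation at 30 °C; 1 = growth at the plate median or of vehicle wells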
# Condition: S. cerevisiae deletion strains, growth OD, locus YNR052C, strain pop2, stronger effect = lower value
Hit rate of the full screen: of about 5,500 compounds, about 2,000 (36%) were called active. Roughly 18% stayed inconclusive and do not appear here. The list shows a part of the results.
Exercise: state measured normalized growth for each of the compounds provided.
Kindly provide the number alone.

Which normalized growth value belongs to O=C(O)c1ccccc1Nc1cccc(C(F)(F)F)c1 ?
0.993

Do the same for CCCC(C)C1(CC)C(=O)N=C(S)NC1=O (stereo not drawn) please
1.01

Do the same for NC[C@H](O)c1ccc(O)c(O)c1 please
1.01

Do the same for N[C@@H](Cc1ccc(O)c(O)c1)C(=O)O please
1

Do the same for CC(C)NCC(O)c1ccc(O)c(O)c1 (stereo not drawn) please
1

Do the same for NCC(O)c1ccc(O)cc1 (stereo not drawn) please
0.982

Do the same for NC(=NCCC[C@H](N)C(=O)O)NC(CCC(=O)O)C(=O)O (stereo partly drawn) please
1.01

Do the same for C[C@H]1[C@H]2CCC3C4CC=C5C[C@@H](N(C)C)CC[C@]5(C)C4CC[C@@]32CN1C (stereo partly drawn) please
0.978

Do the same for O=C(O)/C=C/C=C/c1ccccc1 please
0.925

Do the same for NCC(CC(=O)O)c1ccc(Cl)s1 (stereo not drawn) please
0.981

Do the same for Nc1nc2ncc(C(=O)O)nc2c(=O)[nH]1 please
1.03

Do the same for Cc1ccc(/C(=C\CN2CCCC2)c2ccccn2)cc1 please
1

Do the same for NCCCC[C@H](N[C@@H](CCc1ccccc1)C(=O)O)C(=O)N1CCC[C@H]1C(=O)O please
1.01

---

# Assay summary: chemical genetic growth profiling, strain panel (AID 1159580)
# Condition: S. cerevisiae deletion strains, growth OD, locus YPL241C, strain CIN2
About 2,000 (36%) of roughly 5,500 compounds were called active. Not shown: some 18% with an inconclusive outcome. No stated cut-off is given here; in the data, active means normalized growth mostly below about 0.91 (no sharp cut-off); inconclusive means no clear call, values can overlap the other calls; inactive means mostly above about 0.92. Some of the results follow.
Just give me one of these, please: active, inactive

Each molecule tested received a call. Report the one for CN/C(=C\[N+](=O)[O-])NCCSCc1ccc(CN(C)C)o1 .
inactive

Do the same for CC(C)NCC(O)c1ccc(O)c(O)c1 (configuration not stated) please
inactive

Do the same for CNC[C@H](O)c1ccc(O)c(O)c1 please
inactive

Do the same for CC(C)NC[C@@H](O)c1ccc(O)c(O)c1 please
inactive

Do the same for Nc1ccc(C(=O)NCC(=O)O)cc1 please
inactive

Do the same for COc1cccc(C2C3=C(CC(C)(C)CC3=O)OC3=C2C(=O)CC(C)(C)C3)c1O please
inactive

Do the same for CCN(CC)CCOc1ccc2c(c1)C(=O)c1cc(OCCN(CC)CC)ccc1-2 please
inactive

Do the same for COc1cc(C(O)CN)ccc1O (configuration not stated) please
inactive

Do the same for CC/C(=C(\c1ccccc1)c1ccc(OCCN(C)C)cc1)c1ccccc1 please
active

Do the same for CCN(CC)CCOc1ccc(/C(=C(\Cl)c2ccccc2)c2ccccc2)cc1 please
active

Do the same for O=C(Nc1ccc(C(F)(F)F)cc1)Nc1ccccc1C(=O)O please
inactive

Do the same for CCCCNC(=O)NCCSCc1ccco1 please
inactive

---

# Assay summary: chemical genetic growth profiling, strain panel (AID 1159580);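 note: tested at 20 µM; growth read once vehicle control cultures reached saturation at 30 °C; 1 = growth at the plate median or of vehicle wells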
# Condition: S. cerevisiae deletion strains, growth OD, locus YJR075W, strain HOC1
Out of some 5,500 compounds screened, about 2,000 (36%) were called active. Inconclusive results (about 18%) are left out. No stated cut-off is given here; in the data, active means normalized growth mostly below about 0.91 (no sharp cut-off); inconclusive means no clear call, values can overlap the other calls; inactive means mostly above about 0.92. This is one part of the list.
Just give me one of these, please: 1 (yes) (active), 0 (no) (inactive)

Each compound tested received a call. Report the one for O=[N+]([O-])/C=C/c1ccsc1 .
1 (yes)

Do the same for COC(=O)c1cc(OC)c(OC)cc1-n1c(C)ccc1C please
0 (no)

Do the same for NC(=NS(=O)(=O)c1cc(C(F)(F)F)cc(C(F)(F)F)c1)c1cccs1 please
1 (yes)

Do the same for C=CC(C1=CC(=O)C(OC)=CC1=O)c1ccc(OC)cc1 (stereo unspecified) please
1 (yes)

Do the same for N[C@@H](Cc1ccc(O)c(O)c1)C(=O)O please
0 (no)

Do the same for C[n+]1cccc(C(=O)[O-])c1 please
0 (no)

Do the same for CNC[C@H](O)c1ccc(O)c(O)c1 please
0 (no)

Do the same for NCCCC[C@H](N[C@@H](CCc1ccccc1)C(=O)O)C(=O)N1CCC[C@H]1C(=O)O please
0 (no)

Do the same for Nc1ccccc1SCC(=O)Nc1c(F)cccc1F please
0 (no)

Do the same for NC(N)=NC(N)=Nc1cc(C(F)(F)F)cc(C(F)(F)F)c1 please
0 (no)

Do the same for CC(C)N(Cc1ccc(N(C)C)cc1)S(=O)(=O)c1cc(Cl)c(Cl)cc1Cl please
0 (no)

Do the same for CSC1=NCN(Cc2ccccc2)CN1 please
0 (no)

Do the same for O=[N+]([O-])c1ccc(CSc2ncnc3c2ncn3[C@@H]2O[C@H](CO)[C@H](O)C2O)cc1 (stereo partly specified) please
0 (no)

Do the same for CC(C)(C)NC[C@@H](O)COc1nsnc1N1CCOCC1 please
0 (no)

Do the same for COc1cc(CNC(=O)CCCCCCC(C)C)ccc1O please
0 (no)

Do the same for NCC(O)c1ccc(O)c(O)c1 (stereo unspecified) please
0 (no)

Do the same for CN1CCN(C=Nc2ncc(C(F)(F)F)cc2Cl)CC1 please
0 (no)

Do the same for C=CC(C1=CC(=O)C(OC)=CC1=O)c1ccc(O)cc1 (stereo unspecified) please
0 (no)

Do the same for COc1cc(C2N=C(c3ccc(Cl)cc3)SC(c3ccc(Cl)cc3)=N2)cc(OC)c1OC please
0 (no)

Do the same for O=C1C=CC2=C3c4cc(O)c(O)cc4CC3(O)COC2=C1O (stereo unspecified) please
0 (no)

Do the same for O=C(O)CCCCC1CCSS1 (stereo unspecified) please
0 (no)

Do the same for NCC(O)c1ccc(O)cc1 (stereo unspecified) please
0 (no)

Do the same for C=CC(C1=CC(=O)C(OC)=CC1=O)c1ccccc1 (stereo unspecified) please
1 (yes)

Do the same for C[C@H](N)[C@H](O)c1ccc(O)c(O)c1 please
0 (no)

Do the same for CNC[C@@H](O)c1ccc(O)c(O)c1 please
0 (no)

Do the same for N#Cc1c(N)sc2c1CCCCC2 please
0 (no)

---

Exercise: state measured normalized growth for each of the compounds provided.
# Assay summary: chemical genetic growth profiling, strain panel (AID 1159580);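 note: tested at 20 µM; growth read once vehicle control cultures reached saturation at 30 °C; 1 = growth at the plate median or of vehicle wells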
# Condition: S. cerevisiae deletion strains, growth OD, locus YER155C, strain BEM2, stronger effect = lower value
About 2,000 (36%) of roughly 5,500 compounds were called active. Another 18% or so got no clear call; they are omitted. The list shows a part of the results.
Kindly provide the number alone.

Which normalized growth value belongs to O=C1CCCC2C3CC(CN12)[C@@H]1CCCCN1C3 (some centres not stated) ?
0.98

Do the same for O=[N+]([O-])c1cc([As](=O)(O)O)ccc1O please
0.998

Do the same for NC(=NCCC[C@H](N)C(=O)O)NC(CCC(=O)O)C(=O)O (some centres not stated) please
1.01

Do the same for CC(=O)Nc1cc([As](=O)(O)O)ccc1O please
1.01

Do the same for CC(=O)O[C@@H]1CC2C(C)(C)C(=O)CC[C@]2(C)C2CC[C@]3(C)C(=CC(=O)O[C@H]3c3ccoc3)[C@@]21C (some centres not stated) please
0.991

Do the same for C1CCN2C[C@@H]3C[C@H](CN4CCCC[C@@H]34)[C@H]2C1 please
1.01

Do the same for CC(=O)NCCCCCC(=O)O please
1.01

Do the same for Cc1ccsc1/C=C/C1=NCCCN1C please
0.988

Do the same for C1CCN2CC3CC(CN4CCCCC34)C2C1 (configuration not stated) please
1.01

Do the same for Nc1ccc(S(=O)(=O)Nc2ccc(Cl)nn2)cc1 please
0.998

Do the same for CCC[C@H]1CC2=C(C[C@@H](CC)CC3=C1C(=O)OC3=O)C(=O)OC2=O please
1.01

Do the same for O=[N+]([O-])c1cc(O)c(O)c([N+](=O)[O-])c1 please
0.993

---

# Assay summary: chemical genetic growth profiling, strain panel (AID 1159580);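 note: tested at 20 µM; growth read once vehicle control cultures reached saturation at 30 °C; 1 = growth at the plate median or of vehicle wells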
# Condition: S. cerevisiae deletion strains, growth OD, locus YKL190W, strain CNB1, stronger effect = lower value
The campaign covered roughly 5,500 compounds. About 2,000 (36%) were called active. Inconclusive results (about 18%) are left out. The list shows a part of the results.
Exercise: state measured normalized growth for each of the compounds provided.

Which normalized growth value belongs to Clc1cc(Cl)cc(-n2cccc2)c1 ?
0.988 (inactive)

Do the same for Cc1cc(C)c(I)c(C)c1 please
0.99 (inactive)

Do the same for Cc1ccc(/C(=C\CN2CCCC2)c2ccccn2)cc1 please
1.02 (inactive)

Do the same for C/C=C/c1ccc2c(c1)OCO2 please
1.01 (inactive)

Do the same for CC1(C)C(C(Cl)Cl)C2(Cl)C(Cl)C(Cl)C1(Cl)C2(Cl)Cl (centres undefined) please
0.997 (inactive)

Do the same for O=S(=O)(N/N=C\c1ccc(Cl)cc1)c1ccc(-c2ccccn2)s1 please
0.924 (active)

Do the same for Cc1ccsc1/C=C/C1=NCCCN1C please
1.02 (inactive)

Do the same for CC(=O)c1c(O)c(C)c(O)c2c1OC1=CC(=O)C(C(C)=O)C(=O)C12C (centres undefined) please
1.01 (inactive)

Do the same for CC(=O)NCCCCCC(=O)O please
1.01 (inactive)

Do the same for C=C[C@](C)(O)CCC=C(C)C please
1 (inactive)

Do the same for COc1cc(C(=O)NCc2ccc(OCCN(C)C)cc2)cc(OC)c1OC please
0.986 (inactive)

Do the same for NC(=S)N/N=C\c1cccs1 please
1 (inactive)

Do the same for COc1ccccc1OCCNCC(O)COc1cccc2[nH]c3ccccc3c12 (centres undefined) please
0.997 (inactive)

Do the same for O=C(OC1Cc2c(O)cc(O)cc2OC1c1cc(O)c(O)c(O)c1-c1c(C2Oc3cc(O)cc(O)c3CC2OC(=O)c2cc(O)c(O)c(O)c2)cc(O)c(O)c1O)c1cc(O)c(O)c(O)c1 (centres undefined) please
1 (inactive)

Do the same for O=C(O)CCCCC1CCSS1 (centres undefined) please
0.989 (inactive)

Do the same for NCC(O)c1ccc(O)cc1 (centres undefined) please
1 (inactive)

Do the same for C=C(C)[C@H]1CC=C(C(=O)O)CC1 please
1.01 (inactive)

Do the same for CCN(CC)CCNC(=O)c1cc(S(C)(=O)=O)ccc1OC please
1.01 (inactive)

Do the same for COC(=O)c1ccc(-c2ccc(Cl)cc2)s1 please
0.913 (active)

Do the same for Nc1ccc(S(=O)(=O)Nc2ccc(Cl)nn2)cc1 please
1.01 (inactive)

Do the same for Nc1ncnc2c1ncn2C1O[C@H](COP(=O)(O)O)[C@@H](O)[C@H]1O (some centres undefined) please
1.01 (inactive)

Do the same for C=CC(C)(O)CC/C=C(\C)CCC=C(C)C (centres undefined) please
0.97 (inactive)

Do the same for C1CCN2C[C@@H]3C[C@H](CN4CCCC[C@@H]34)[C@H]2C1 please
1.02 (inactive)

Do the same for CC(C)(C)NS(=O)(=O)NC(C)(C)C please
1 (inactive)

Do the same for O=[N+]([O-])/C=C/c1ccsc1 please
0.0559 (active)

Do the same for CCCCC1=NC2(CCCC2)C(=O)N1Cc1ccc(-c2ccccc2-c2nn[nH]n2)cc1 please
0.986 (inactive)

Do the same for O=C(O[C@@H]1Cc2c(O)cc(O)cc2O[C@@H]1c1cc(O)c(O)c(O)c1-c1c([C@H]2Oc3cc(O)cc(O)c3C[C@H]2O)cc(O)c(O)c1O)c1cc(O)c(O)c(O)c1 please
0.0679 (active)

Do the same for CCC(Cc1c(I)cc(I)c(N)c1I)C(=O)O (centres undefined) please
1 (inactive)

Do the same for NC(=S)N/N=C\c1ccccc1 please
0.973 (inactive)

Do the same for COc1cc2c(c(OC)c1OC)-c1ccc(O)c(=O)cc1[C@@H](NC(C)=O)CC2 please
0.593 (active)

Do the same for CSc1ccc(/C=C/[N+](=O)[O-])cc1 please
0.0461 (active)

Do the same for Nc1ncnc2c1ncn2C1C[C@H](O)[C@@H](CO)O1 (some centres undefined) please
0.993 (inactive)

Do the same for N#Cc1c(N)sc2c1CCCCC2 please
0.927 (active)

Do the same for O=C(O)c1cccnc1Nc1cccc(C(F)(F)F)c1 please
0.979 (inactive)

Do the same for COc1ccc(NS(=O)(=O)c2c(C)noc2C)cc1 please
1 (inactive)

Do the same for CCCCC(CC)CN1CN(CC(CC)CCCC)CC(C)(N)C1 (centres undefined) please
0.445 (active)

Do the same for CCN(CC)CCOc1ccc(/C(=C(\Cl)c2ccccc2)c2ccccc2)cc1 please
0.0469 (active)

Do the same for C1CCN2CC3CC(CN4CCCCC34)C2C1 (centres undefined) please
1 (inactive)

Do the same for Nc1nc2c(ncn2C2C[C@H](O)[C@@H](CO)O2)c(=O)[nH]1 (some centres undefined) please
1 (inactive)

Do the same for CC(C)NCC(O)c1ccc(O)c(O)c1 (centres undefined) please
0.996 (inactive)

Do the same for Cc1ccc2cc3c(ccc4ccccc43)c3c2c1CC3 please
0.958 (inactive)

Do the same for CN[C@H](CC(=O)O)C(=O)O please
0.999 (inactive)

Do the same for COC(=O)C[C@H]1C(C)(C)C(=O)[C@@H]2CC3=C4CC(=O)O[C@@H](c5ccoc5)[C@]4(C)CCC3[C@@]1(C)C2=O (some centres undefined) please
1.01 (inactive)

Do the same for Oc1c(Br)cc(Br)c2cccnc12 please
0.049 (active)

Do the same for O=C(NNC(=S)Nc1ccc(F)cc1)c1ccccc1Cl please
0.966 (inactive)

Do the same for O=C1C=CC2=C3c4cc(O)c(O)cc4CC3(O)COC2=C1O (centres undefined) please
0.908 (active)

Do the same for NC(N)=NC(N)=Nc1cc(C(F)(F)F)cc(C(F)(F)F)c1 please
1.01 (inactive)

Do the same for CCCCC1(COC(=O)CCC(=O)O)C(=O)N(c2ccccc2)N(c2ccccc2)C1=O please
0.993 (inactive)

Do the same for COc1ccc(-c2c(C)nc3ccc(Cl)cc3c2-c2ccccc2)cc1OC please
0.98 (inactive)
